Source: PubChem BioAssay AID1745853

system.tested: Histamine N-methyltransferase (Homo sapiens) (UniProt P50135)
Sequence (P50135 whole entry, looked up): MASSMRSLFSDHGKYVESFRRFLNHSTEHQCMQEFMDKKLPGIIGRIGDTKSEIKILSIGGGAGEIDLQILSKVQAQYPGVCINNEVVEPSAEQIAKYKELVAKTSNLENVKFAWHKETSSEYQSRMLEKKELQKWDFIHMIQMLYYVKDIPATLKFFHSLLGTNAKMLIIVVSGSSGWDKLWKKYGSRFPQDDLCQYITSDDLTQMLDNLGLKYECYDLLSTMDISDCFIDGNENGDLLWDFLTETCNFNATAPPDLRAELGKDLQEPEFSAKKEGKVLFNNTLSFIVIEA
method.notes: Primary Screen for Target Class Profiling of Small Molecule Inhibitors of Methyltransferases; further: on the % scale 0 is the no-effect control and ±100 the full control effect
study.conditions: purified enzyme, MTase-Glo SAH luminescence; measured here: HNMT inhibition; at 40 µM; stronger effect = lower value
In all, about 25,000 compounds went through this assay and about 970 (3.9%) were called active. Roughly 8% stayed inconclusive and do not appear here. Many of the other results were omitted from the sample, so actives are more common in it than they were.
Assignment: determine reported activity change, negative = inhibition for the given compounds.

A selection of reference data follows.
compound: CC(=O)N(C1CCOCC1)C1CCN(S(=O)(=O)c2ccc3c(c2)OCCO3)CC1
activity change, negative = inhibition: 15.9%
//
compound: CCCN1C(=O)c2cc(C(=O)NCc3cc(Br)ccc3OC)nn2CC1(C)C(=O)NC1CCCC1 (stereo not drawn)
activity change, negative = inhibition: -1.31%
//
compound: Cn1c(=O)c2ccc(C(=O)NC3CCCCC3)cc2n2c(SCc3cccc(Cl)c3)nnc12
activity change, negative = inhibition: 2.66%
//
compound: COc1ccccc1CN[C@H]1[C@H](O)[C@@H](N2CCN(c3ccccc3OC)CC2)[C@@H]2OC[C@H]1O2
activity change, negative = inhibition: 2.36%

Would you mind listing activity change, negative = inhibition for each of the following compounds?
1. CCCS(=O)(=O)N1CCCC(Cn2c(C)nc3cccnc32)C1 (stereo not drawn)
2. COc1cc(O)c(C(=O)CCc2ccc(O)cc2)c(O[C@@H]2O[C@H](CO)[C@@H](O)[C@H](O)[C@H]2O)c1
3. COc1cc(C)c(C(=O)Oc2cc(C)c(C(=O)Oc3cc(C)c(C(=O)NC(C)C(=O)O)c(O)c3)c(O[C@@H]3O[C@H](CO)[C@@H](O)[C@H](O)[C@H]3OC(C)=O)c2)c(OC)c1 (stereo partly drawn)
4. COC(=O)CCc1cc2ccoc2c(OC)c1O[C@@H]1O[C@H](CO)[C@@H](O)[C@H](O)[C@H]1O

## Result
1: -2.37%; 2: 2.69%; 3: 6.89%; 4: 10.2%

* * *

system.tested: Glycine N-methyltransferase (Homo sapiens) (UniProt Q14749)
Sequence (Q14749 whole entry, looked up): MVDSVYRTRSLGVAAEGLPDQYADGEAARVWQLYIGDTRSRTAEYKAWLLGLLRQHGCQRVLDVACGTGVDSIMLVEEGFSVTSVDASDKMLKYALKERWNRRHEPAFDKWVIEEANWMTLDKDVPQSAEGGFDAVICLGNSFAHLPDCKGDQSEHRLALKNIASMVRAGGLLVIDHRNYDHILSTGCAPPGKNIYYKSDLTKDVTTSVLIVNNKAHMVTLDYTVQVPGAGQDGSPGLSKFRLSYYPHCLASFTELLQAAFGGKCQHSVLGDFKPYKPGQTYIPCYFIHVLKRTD
method.notes: Primary Screen for Target Class Profiling of Small Molecule Inhibitors of Methyltransferases; further: on the % scale 0 is the no-effect control and ±100 the full control effect
study.conditions: purified enzyme, MTase-Glo SAH luminescence; measured here: GNMT inhibition; at 40 µM; stronger effect = lower value
Out of some 25,000 compounds screened, about 970 (3.9%) were called active. Roughly 8% stayed inconclusive and do not appear here. The sample holds actives, similar compounds and a random draw of the others, so the mix is not that of the screen.
Consider the following compounds; for each one, report its activity change, negative = inhibition.
Answers are plain numbers, in %.

compound: Cn1ccc(Nc2cc3c(cn2)CN(CCc2ccccc2)CCN3)n1
result: -10.2
--
compound: CC(F)(F)CN1CCOc2c(nn(-c3ccccc3Cl)c2-c2ccc(Cl)cc2)C1=O
result: -72.3
--
compound: CCn1c(=O)n(CC)c2cc(S(=O)(=O)Nc3ccc(Br)c(C)c3)c(Cl)cc21
result: -3.14

Hi, could you look up activity change, negative = inhibition for each item in my list?
1. Cc1nonc1OCCn1ccnc1-c1cn(C2CCNCC2)nn1
2. Cc1c(NC(=O)c2cc(C(N)=O)nc3cc(F)ccc23)c(C(F)(F)F)nn1Cc1ccc(C#N)cc1
3. Cc1ccc(N2C(=O)c3cc(-c4ccco4)nn3CC2(C)C(=O)NC2CCCCC2)cc1Cl (centres undefined)
4. Cc1ccc(C(=O)COC(=O)C(Cc2c[nH]c3ccccc23)NC(=O)c2ccc(Br)cc2)cc1 (centres undefined)

## Result
1. -2.5
2. -5.91
3. -10.8
4. 10.7

// input: 2 compounds below; output: activity change, negative = inhibition for each
1. Cn1c(=O)c2ccc(C(=O)NC3CCCCC3)cc2n2c(SCc3cccc(Cl)c3)nnc12
2. CCOC(=O)c1cc2n(n1)CC(C)(C(=O)NCc1ccc(F)cc1)N(Cc1ccccc1OC)C2=O (centres undefined)

## Result
2.72
-3.75
